Each recorded value in this set is attributed to PubChem BioAssay.

# Procedure Summary: FRG1 promoter luciferase signal modulators, primary screen, FRG1 inhibition for FSHD, cell-based, C2C12 myotubes, firefly/Renilla luciferase, luminescence (AID 1084)
# Test Context: higher = more signal, called active from +8 up or from −8 down
The source made the active and inactive calls.
Quantity Kind: z-score

Solved cases (5 shown):
1) CCOC(=O)NN=C1C[C@@H](O)[C@@H](O)[C@@H]2[C@@H]3C(=O)N(Cc4ccccc4)C(=O)[C@@H]3CC[C@H]12    1.08 (inactive)
2) CC(C)(C)N1C(=O)[C@H]2[C@H]3[C@H](O)[C@H](O)CC(=NO[C@@H]4O[C@H](CO)[C@@H](O)[C@H](O)[C@H]4O)[C@H]3CC[C@H]2C1=O    0.599 (inactive)
3) CO[C@H]1COC(=O)CCC[C@@H](C)[C@H](OC)COC(=O)[C@@H]2CCCN2C(=O)CC=C[C@@H]1C    0.362 (inactive)
4) CSCC[C@@H]1NC(=O)CC=C[C@@H](C)COC(=O)[C@@H](C)COC1=O    -0.371 (inactive)
5) COC(=O)C1=C(C)N(Cc2ccccc2)[C@]23O[C@](C(=O)OC)(C(=O)N2[C@@H]1c1ccccc1)C(C(=O)OC)=C3C(=O)OC    -1.51 (inactive)

## Task Give the measured z-score for O=C1[C@H]2[C@H]3[C@H](O)[C@H](O)CC(=NOC[C@@H](O)COCc4ccco4)[C@H]3CC[C@H]2C(=O)N1C[C@@H]1CCCO1
## Result 0.839 (inactive)

## Task Using known records, supply z-score for CCOC(=O)[C@H](CC(C)C)NC(=O)CCC1CC(OC(=O)NCc2cccc3ccccc23)CC2(CCCC(COC(=O)NCCc3ccc(Cl)cc3)O2)O1 (some centres not stated)
## Result 1.83 (inactive)
